Quick reference for microsomal CLint among some compounds
METHOD SUMMARY: Clearance in rat liver microsomes
Assay type: ADME
CONDITIONS: read-out: CLH
The reply should contain only the number, in µL/min/mg.

COMPOUND: COCCCOc1cccc(C2NC(=S)Nc3c2oc2c(F)cccc32)c1 (stereo unspecified)
QUANTITY UNIT: µL/min/mg
READOUT VALUE: 140

Dear colleague, please send me the reported microsomal CLint for O=C1C2=C(NC(=S)NC2c2cccc(OCc3ccccn3)c2)c2ccccc21 (stereo unspecified) when you can.
310

Dear colleague, please send me the reported microsomal CLint for COCCCOc1cc(C2NC(=S)NC3=C2C(=O)c2ccccc23)ccn1 (stereo unspecified) when you can.
350

Dear colleague, please send me the reported microsomal CLint for O=C1C2=C(NC(=S)NC2c2cccc(OCc3cccnc3)c2)c2ccccc21 (stereo unspecified) when you can.
250

Dear colleague, please send me the reported microsomal CLint for COCCCOc1cccc(C2NC(=S)NC3=C2C(=O)c2ccccc23)n1 (stereo unspecified) when you can.
230

Dear colleague, please send me the reported microsomal CLint for COCCCOc1cccc([C@H]2NC(=S)Nc3c2oc2ccccc32)c1 when you can.
350

* * *

METHOD SUMMARY: Solubility in PBS buffer at pH 7.4
Type: physicochemical
METRIC NAME: solubility (µg/mL)
The reply should contain only the number, in µg/mL.

Example entries begin here.
COMPOUND: COCCCOc1cccc(C2NC(=S)Nc3c2oc2c(F)cccc32)c1 (stereo not given)
solubility [µg/mL]: 17
--
COMPOUND: COCCCOc1cccc(C2NC(=S)NC3=C2C(=O)c2ccccc23)c1 (racemic)
solubility [µg/mL]: 10
--
COMPOUND: COCCCOc1cccc(C2NC(=S)NC3=C2C(=O)c2ccccc23)n1 (stereo not given)
solubility [µg/mL]: 36
--
COMPOUND: COCCCOc1cncc(C2NC(=S)NC3=C2C(=O)c2ccccc23)c1 (stereo not given)
solubility [µg/mL]: 2.8

Proceed to the following item.
Dear colleague, please send me the reported solubility for O=C1C2=C(NC(=S)NC2c2cccc(OCc3ccccn3)c2)c2ccccc21 (stereo not given) when you can.
10

* * *

METHOD SUMMARY: Oral bioavailability in fasted Sprague-Dawley rat at 30 mg/kg
Format: ADME, organism-based
CONDITIONS: in vivo
METRIC NAME: bioavailability (%)
The reply should contain only the number, in %.

Dear colleague, please send me the reported bioavailability for COCCCOc1cccc([C@H]2NC(=S)Nc3c2oc2ncccc32)c1 when you can.
13

* * *

METHOD SUMMARY: Solubility in fasted state simulated intestinal fluid at pH 6.8
Format: ADME
Quick reference for solubility among some compounds
The reply should contain only the number, in µg/mL.

Example entries begin here.
COMPOUND: S=C1Nc2c(oc3ncccc23)C(c2cccc(OCc3cccnc3)c2)N1 (stereo unspecified)
solubility (µg/mL): 21
//
COMPOUND: O=C1C2=C(NC(=S)NC2c2cccc(OCc3cccnc3)c2)c2ccccc21 (stereo unspecified)
solubility (µg/mL): 15
//
COMPOUND: COCCCOc1cccc([C@H]2NC(=S)NC3=C2C(=O)c2ccccc23)c1
solubility (µg/mL): 12
//
COMPOUND: COCCCOc1cccc([C@H]2NC(=S)Nc3c2oc2ccccc32)c1
solubility (µg/mL): 23
//
COMPOUND: O=C1C2=C(NC(=S)NC2c2cccc(OCc3ccccn3)c2)c2ccccc21 (stereo unspecified)
solubility (µg/mL): 200
//
COMPOUND: COCCCOc1cccc(C2NC(=S)NC3=C2C(=O)c2ccccc23)c1 (racemic)
solubility (µg/mL): 23
//
COMPOUND: COCCCOc1ccnc(C2NC(=S)NC3=C2C(=O)c2ccccc23)c1 (stereo unspecified)
solubility (µg/mL): 39
//
COMPOUND: COCCCOc1cncc(C2NC(=S)NC3=C2C(=O)c2ccccc23)c1 (stereo unspecified)
solubility (µg/mL): 14
//
COMPOUND: COCCCOc1cccc(C2NC(=S)Nc3c2oc2c(F)cccc32)c1 (stereo unspecified)
solubility (µg/mL): 66
//
COMPOUND: COCCCOc1cccc([C@H]2NC(=S)Nc3c2oc2ncccc32)c1
solubility (µg/mL): 46

Proceed to the following item.
Dear colleague, please send me the reported solubility for COCCCOc1cccc(C2NC(=S)NC3=C2C(=O)c2ccccc23)n1 (stereo unspecified) when you can.
35
